Listed next: entries and their corresponding GI50.
Test system: NCI-H226 lung
Assay: NCI tumour cell line growth inhibition, 48 h

Fc1ccc(/C=N/n2c(-c3ccc(F)c(Cl)c3)nn(CNc3ccccc3C(F)(F)F)c2=S)cc1 | 69.5 µM
COc1cc2c(cc1OCCCn1c(-c3ccccn3)nc3ccccc31)N=C[C@@H]1CCCN1C2=O | 0.8 µM
CN[C@@H](C)C(=O)N[C@H](C(=O)N1CCC[C@H]1C(=O)Nc1sc(-c2ncco2)nc1-c1ccccc1)C1CCCCC1 | > 100 µM

Let us examine a further case.
Record O=C(NN1C(=O)CSC12CCCCC2)c1[nH]c2ccc(Br)cc2c1-c1ccccc1 , field GI50: 23 µM

---

System: KM12 colon
Test: NCI tumour cell line growth inhibition, 48 h; in the data active = GI50 below about 0.43 µM; inactive = the rest
The categories you may choose from are TRUE = active, FALSE = inactive

Some solved entries appear below for comparison.
Cc1cc(S(=O)(=O)/N=C(/N)Nc2ccccc2O)c(SCc2ccccc2)cc1Cl | FALSE
COc1ccc2c(c1)N(CCO)C1=C(C(=O)OC1)C2c1cccc(F)c1 (stereo not given) | TRUE
COc1cc(N2C(=O)[C@H](O)C2c2ccc(SC)cc2)cc(OC)c1OC (stereo not given in full) | TRUE
COc1ccc(-c2cc(-c3ccc(C)cc3)nc3nc(=S)[nH]c(N)c23)cc1 | FALSE

Next compound, please.
Lookup: Assay outcome for C[C@@H]1CN(Cc2ccc(F)cc2)[C@@H](C)CN1C(=O)c1cc2c(C(=O)C(=O)N(C)C)cn(C)c2cc1Cl : what was it?
Found: FALSE

---

Listed next: entries and their corresponding TGI.
Test system: IGROV1 ovarian
Assay: NCI tumour cell line growth inhibition, 48 h

Take a look at these entries with their results.
Cc1n[nH]c(=O)n1N1C(=O)CCCC1=O | > 100 µM
CCCP1(=O)C=C(C)C(=C(Cl)Cl)C(C)=C1 (stereo not drawn) | > 100 µM
CN(N=O)C(=O)ON1C(=O)CCC1=O | > 100 µM
COC(=O)[C@@H]1[C@H](OC(C)=O)CCC2[C@@]3(C[C@@H](c4ccoc4)O[C@@H]3OC)[C@H](C)CC[C@]21C(=O)OC (stereo partly drawn) | > 25 µM
CCOC(=O)C1=NOC2(C=C(Br)C(=O)C(Br)=C2)C1 | 20.6 µM

Record NC(=O)c1csc(C2OC(CO)C(O)C2O)n1 (stereo not drawn) , field TGI: 5650 µM

Record CC(C)(C)OC(=O)N/N=C(/N)Cc1ccc(Cl)cc1 , field TGI: > 100 µM

Record Fc1ccc(C2SCc3nc4ccccc4n32)c(F)c1 (stereo not drawn) , field TGI: > 100 µM

---

Test system: MDA-N
Experiment: NCI tumour cell line growth inhibition, 48 h
RESULT_TYPE: TGI

O=C1c2ccccc2-c2cc([N+](=O)[O-])c([N+](=O)[O-])cc21 | 5.18 µM
O=C1CCCN1C(=O)CS(=O)(=O)c1ccccc1 | > 100 µM
CCN(CC)CC1CCCCN1CC(=O)N1c2ccccc2C(=O)Nc2cccnc21 (stereo not given) | > 100 µM
Cc1ccccc1-n1c(=O)c2ncn(C3CCCO3)c2n(-c2ccccc2C)c1=S (stereo not given) | > 100 µM
C/C(=N\Nc1ccc([N+](=O)[O-])cc1[N+](=O)[O-])c1sc(-n2nc(-c3ccccc3)cc2-c2ccccc2)nc1C | > 100 µM
O=[N+]([O-])c1nccn1CCCNc1ccnc2cc(Cl)ccc12 | > 100 µM
CC(=O)C1C(=O)C(=O)N(c2cccc([N+](=O)[O-])c2)C1=O (stereo not given) | > 100 µM
CC1CC(C)C(C#N)N(C)c2ccccc21 (stereo not given) | > 100 µM
CCOC(=O)C1=NOC2(C=C(Br)C(=O)C(Br)=C2)C1 | 3.39 µM

Let us examine a further case.
Record C=CCN1C(=O)/C(=C/c2cccs2)N=C1SC/C=C/C , field TGI: > 100 µM
